TARGET_ENTITY: T1, cynomolgus monkey CD73 (on transfected CHOK1 cells) (cynomolgus monkey, UniProt A0A2K5V5U7 27-549)
T1 construct: whole, on cells; also called CHOK1-cCD73; CHOK1-CCD73
T1 sequence: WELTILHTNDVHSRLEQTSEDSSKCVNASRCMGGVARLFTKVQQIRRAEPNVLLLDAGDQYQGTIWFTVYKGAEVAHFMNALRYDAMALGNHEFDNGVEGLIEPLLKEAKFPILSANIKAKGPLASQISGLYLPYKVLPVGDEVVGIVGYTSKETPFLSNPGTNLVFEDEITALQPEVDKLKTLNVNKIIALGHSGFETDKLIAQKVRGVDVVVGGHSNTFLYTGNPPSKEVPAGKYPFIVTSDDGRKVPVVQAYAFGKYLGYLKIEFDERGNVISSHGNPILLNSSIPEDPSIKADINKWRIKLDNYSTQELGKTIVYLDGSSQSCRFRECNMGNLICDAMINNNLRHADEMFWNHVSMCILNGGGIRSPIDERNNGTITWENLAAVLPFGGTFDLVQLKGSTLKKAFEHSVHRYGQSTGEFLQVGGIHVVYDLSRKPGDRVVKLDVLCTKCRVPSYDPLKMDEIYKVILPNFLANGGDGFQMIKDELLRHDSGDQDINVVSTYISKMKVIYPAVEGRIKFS
PROTOCOL_TEXT: FACS on CHOK1-cCD73 cells

| BINDER | UNIT_TEXT | SIGN | MAX MFI fold |
| --- | --- | --- | --- |
| mab034xhIgG1TM (clone 60G1C8), mouse-human chimeric anti-CD73 antibody (antibody, V domains shown, also called mAb034 chimeric antibody) VH: DVQLQESGPGLVKPSQSLSLTCSVTGYSITSRYYWNWIRQFPGNKLEWMGYMTYDGTNNYNPSLTNRISITRDTSKNQFFLKLNSVTAEDTATYFCARGGWDPFDYWGQGTTLTVSS VL: DIQMTQSPAALSASVGETVTITCRASDNIYSYLAWYQQKQGKCPQLLVKNAKTLAEGVPSRFSGSGSGTQFSLRINSLQPDDFGTYYCQHYYGTPLTFGAGTKLELK | fold | > | 150 |
| mab030xhIgG1TM (clone 42A5A7), mouse-human chimeric anti-CD73 antibody (antibody, V domains shown, also called mAb030 chimeric antibody) VH: DIQLQESGPGLVKPSQSLSLTCSVTGYSITSRYYWNWIRQFPGNKLEWMGYITYDDNNNYNPSLKNRISITRDTSKNQFFLKLNSVTPEDTATYYCARGGWDPFLYWGQGTLVTVSA VL: DIQMTQSPASLSASVGETVTITCRASDNIYSYLAWYQQKQGKSLQLLVDSAKNLGEGVPSRFSGSGSGTQFYLKINSLQPEDFGVYYCQHYYGTPFTFGGGTKLELK | fold | = | 138 |
| mab036xhIgG1TM (clone 66H6C12), mouse-human chimeric anti-CD73 antibody (antibody, V domains shown, also called mAb036 chimeric antibody) VH: QVQLQQSGAEVVKPGASVKISCKASGYVFSSYWINWVKQRPGKGLEWIGKIFPGNGDTDYNGNFKGKATLTADKSSSTAYMQLSSLTSEDSAVYFCAGFADWGQGTLVTVSA VL: DIQMTQSPSSLSASLGERVSLTCRASQDIGERLIWLQQEPDGTFKRLIYATSSLDSGVPKRFSGSSSGSDYSLTISRLESEDFVDYYCLQYASSPYTFGGGTKLEIK | fold | = | 90.2 |
| mab044xhIgG1TM (clone 80H7D6), mouse-human chimeric anti-CD73 antibody (antibody, V domains shown, also called mAb044 chimeric antibody) VH: EVKLVESGGGLVQPGGSLRLSCAASGFTFTDYYMSWVRQPPGKALEWLGFIRNKADGSTTEYSASVKGRFTISRDNSQSILYLQMNALRPEDSATYYCTRSPIYFDNWYFDVWGTGTTVTVSS VL: DIVMSQSPSSLAVSVGEKVTMTCKSSQSLLYSNNQKNYLAWYQQKPGQSPKLLIYWASTRESGVPDRFTGSGSGTDFTLTLSSVKAEDLAVYYCQQYYSYPFTFGSGTKLEIK | fold | = | 174 |
| mab032xhIgG1TM (clone 56F12H8), mouse-human chimeric anti-CD73 antibody (antibody, V domains shown, also called mAb032 chimeric antibody) VH: EVQLVESGGDLVKPGGSLKLSCAASGFTFSTHGMSWVRQTPDKRLEWVAIISSDRSDIDYTDNVKGRFTISRDNGKNTLYLQMSSLKSEDTAIYHCARHRGYDGFYYAMDYWGQGTSVTVSS VL: DILMTQSPSSLTVTAGEKVTMSCRSSQSLLNSGNQKNYLTWYQQRPGRPPKLLIYWASTRISGVPDRFAGSGSGTDFTLTISIVQAEDLAVYYCQNDYSYPLTFGSGTKLELR | fold | = | 167 |
